Data provenance: the supplement of paper PMC12042874

Experiment: amyloid nucleation score (Sup35N fusion, yeast selection) (log enrichment); library NNK2; higher = more nucleation; inactive = no reads after selection;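 note: zero at mode of non-aggregating sequences after 7 days selection at 30°C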
Readout: amyloid nucleation score
Please state the value as a number alone, without comment.

Field amyloid nucleation score (entry SNMASIFTPKRSFNSEVENQ ) reads -1.31

Field amyloid nucleation score (entry NGFMDYQLPLAARVKSSWHL ) reads 2.97

Field amyloid nucleation score (entry DESICCQEVGNSRVDSDEGR ) reads 2.94

Field amyloid nucleation score (entry KLSNLSHDSYMLENALFALT ) reads 2.52

Field amyloid nucleation score (entry SQVGTW ) reads 0.795

Field amyloid nucleation score (entry SFEWKPVFLSRLRPRIRHQV ) reads 5.66

Field amyloid nucleation score (entry WVTSDRYKRALARKSHEQRN ) reads 0.423

Field amyloid nucleation score (entry IIVYVDDSPLYAVSRLQSYC ) reads 0.758

====

Experiment: amyloid nucleation score (Sup35N fusion, yeast selection) (log enrichment); library NNK3; higher = more nucleation; inactive = no reads after selection
Readout: amyloid nucleation score

// solved cases for amyloid nucleation score follow
| Substance | amyloid nucleation score |
| --- | --- |
| SFNVDAYMNINCW | 1.02 |
| FFNVELLMIDCGFYEFHTDD | 2.1 |
| CCACWGINHSYGLSTEVSQY | inactive |
| TVPVSSCGGLRNEPHDVRFG | inactive |
| DTITRSTWIVCWRTE | inactive |
| WLSDNSSNDLQYHYSSSKIM | inactive |

Field amyloid nucleation score (entry YTQFYSMILDRRFCFNSVEL ) reads inactive

Field amyloid nucleation score (entry NTSAPSNATAAFKAITN ) reads inactive

Field amyloid nucleation score (entry LVLLHVLGERSSAPRRTVMR ) reads inactive

Field amyloid nucleation score (entry LQSNFRSPTISGFTTEKVGK ) reads inactive

Field amyloid nucleation score (entry FYITFFECD ) reads inactive

====

Recorded amyloid nucleation score, one value per entry.
Experiment: amyloid nucleation score (Sup35N fusion, yeast selection) (log enrichment); library NNK2; higher = more nucleation; inactive = no reads after selection
Please state the value as a number alone, without comment.

// solved cases for amyloid nucleation score follow
| Substance | Reported |
| --- | --- |
| TGVKRIMSGSIIFPFLAVSF | -0.751 |
| SLLESLVAMLVGVQRVVDSR | 1.03 |

Field amyloid nucleation score (entry RYPLVKFQCYTGNYGKFGNL ) reads 3.01

Field amyloid nucleation score (entry IDPKEMTGDRQWVSFTVRRR ) reads 0.574

Field amyloid nucleation score (entry REWVRYCRCWSCYYPTFFS ) reads -0.198

====

Recorded amyloid nucleation score, one value per entry.
Assay: amyloid nucleation score (Sup35N fusion, yeast selection) (log enrichment); library NNK1; higher = more nucleation; inactive = no reads after selection
Please state the value as a number alone, without comment.

// solved cases for amyloid nucleation score follow
| Substance | Readout | Reported |
| --- | --- | --- |
| LFLGMSNGLFLRMISRGCKW | amyloid nucleation score | -0.243 |
| SLYVKWSQILLPLVLYVWYY | amyloid nucleation score | 0.232 |

Field amyloid nucleation score (entry GPFHRWNL ) reads -0.129

Field amyloid nucleation score (entry NLFIPILVYHDVSRYSLRMD ) reads 6.48

====

Assay: amyloid nucleation score (Sup35N fusion, yeast selection) (log enrichment); library NNK3; higher = more nucleation; inactive = no reads after selection
Readout: amyloid nucleation score

// solved cases for amyloid nucleation score follow
| Substance | amyloid nucleation score |
| --- | --- |
| IMVKLSIIIVYC | 1.76 |
| ALEFRSTENTSSSG | -0.223 |
| RASTISLGKLVQLYLYSRRL | 0.468 |
| SSAYHSHDSSRTKRNRSGRM | inactive |
| EEGCYHLLNNLGRNCSECNG | inactive |
| CLMVKHYFFVSSWRFNVFGI | inactive |

Field amyloid nucleation score (entry IRMIDWILLDAVT ) reads inactive

Field amyloid nucleation score (entry GFLGCRSETFWRVVVTKRKV ) reads inactive

Field amyloid nucleation score (entry VKFVCKAELLDLT ) reads inactive

Field amyloid nucleation score (entry FGYSLMLVTACVLRCQSLWS ) reads inactive

Field amyloid nucleation score (entry SSGNFA ) reads inactive

Field amyloid nucleation score (entry SRPVVRVINYYELGHIKVMS ) reads inactive

Field amyloid nucleation score (entry MFMMTKRNCNSTCCHYKFRV ) reads 0.656

Field amyloid nucleation score (entry LYCPGYSMKSSVL ) reads inactive

Field amyloid nucleation score (entry RVKSKDANSGGSMVCASRVL ) reads inactive

Field amyloid nucleation score (entry NNSSSMSLINKSTCCLDWSS ) reads 2.02

Field amyloid nucleation score (entry NLTFYMYIELVDLRGNAE ) reads 2.29

Field amyloid nucleation score (entry FWLSHQNDDVYTFMPLSCSS ) reads inactive

Field amyloid nucleation score (entry LFLMIFNARNCVRYGIEGPS ) reads inactive

Field amyloid nucleation score (entry NTWRYN ) reads inactive

Field amyloid nucleation score (entry SHGHYCIVFVFTRL ) reads inactive

Field amyloid nucleation score (entry SPVSNYYDIKVVRDVSGCFT ) reads inactive

Field amyloid nucleation score (entry LSGKTMVFFPKSNMRNNTRS ) reads inactive

Field amyloid nucleation score (entry FKRCSSIVRGWSS ) reads inactive

Field amyloid nucleation score (entry GAHFWKNGVGRWLPRNC ) reads inactive

Field amyloid nucleation score (entry DLWIYIVLYVVAHVALYKDG ) reads inactive

Field amyloid nucleation score (entry VTELDEWSGIVVEGYNACSS ) reads inactive

Field amyloid nucleation score (entry MCLSILE ) reads inactive

Field amyloid nucleation score (entry WVWMTETVLWFRYKQVACGW ) reads inactive

====

Test: amyloid nucleation score (Sup35N fusion, yeast selection) (log enrichment); library NNK3; higher = more nucleation; inactive = no reads after selection
Readout: amyloid nucleation score

// solved cases for amyloid nucleation score follow
| Substance | Readout | Reported |
| --- | --- | --- |
| QVDHNWF | amyloid nucleation score | inactive |
| HQTLKSQD | amyloid nucleation score | inactive |
| YTAKYGGFISLYR | amyloid nucleation score | 0.691 |
| FYVNPITEGMA | amyloid nucleation score | inactive |

Field amyloid nucleation score (entry ELLHKAF ) reads inactive

Field amyloid nucleation score (entry GVCSLCKTLR ) reads inactive

Field amyloid nucleation score (entry IFFVRSDAFKFSILSVNASL ) reads -0.37

Field amyloid nucleation score (entry HKMDWYIGLFRLMHTVAVLM ) reads inactive

Field amyloid nucleation score (entry EFTNMYLPNSQQEVRFLQGL ) reads inactive

Field amyloid nucleation score (entry GYERSDKKLDKKVL ) reads inactive

Field amyloid nucleation score (entry NVFNFRVDSSDHPPVSAWWD ) reads inactive

Field amyloid nucleation score (entry TLVGYLIARLFWR ) reads inactive

Field amyloid nucleation score (entry IMRGITEGWEPLVVES ) reads inactive

Field amyloid nucleation score (entry CNYCALLTCLRGMPN ) reads 1.16

Field amyloid nucleation score (entry FLRLHLFHSWTISLSSYRSV ) reads inactive

Field amyloid nucleation score (entry FFVFVR ) reads 1.3

Field amyloid nucleation score (entry RNSTMIYTQ ) reads 2.24

Field amyloid nucleation score (entry CEQDTCFIHISRYTTVNNTM ) reads inactive

Field amyloid nucleation score (entry NMMFILGFFNNKY ) reads 2.38

====

Experiment: amyloid nucleation score (Sup35N fusion, yeast selection) (log enrichment); library NNK1; higher = more nucleation; inactive = no reads after selection
Output Criterion met for amyloid nucleation score not less than 1; output Criterion not met otherwise.

| Input Sequence | Group Label |
| --- | --- |
| KCDARVVIFYLVRAGGVNGI | Criterion met |
| FLGGDTRIDHGTLWWSLIRQ | Criterion not met |
| CGIVFCSSFMDIFGPFDQTH | Criterion met |
| YNVSQLVLLNVFTCK | Criterion met |
| EECGLGCAVKA | Criterion not met |

In plain terms: is recorded amyloid nucleation score at least 1 for VEQSFTAAPFQDVLF ?
Criterion not met

In plain terms: is recorded amyloid nucleation score at least 1 for HIQRYMWKGGLEFVLIVRRA ?
Criterion met

In plain terms: is recorded amyloid nucleation score at least 1 for CGSRLGEMRAVTGPHLTPMR ?
Criterion not met

====

Test: amyloid nucleation score (Sup35N fusion, yeast selection) (log enrichment); library NNK1; higher = more nucleation; inactive = no reads after selection
Recorded amyloid nucleation score, one value per entry.
Please state the value as a number alone, without comment.

// solved cases for amyloid nucleation score follow
| Input Sequence | Reported |
| --- | --- |
| YLFAWSWEDGFYTGACRLLA | 0.006 |
| TWYLMMENVS | 4.69 |
| MDRDASYHGYIGHLLSWIGM | 0.886 |
| QLSFYSFCPMATYRSSNSDL | 5.92 |
| DDQKIRRY | 0.602 |

The record that follows has no amyloid nucleation score shown yet.
Field amyloid nucleation score (entry VQDLYCIRYL ) reads -1.39

====

Recorded amyloid nucleation score, one value per entry.
Assay: amyloid nucleation score (Sup35N fusion, yeast selection) (log enrichment); library NNK1; higher = more nucleation; inactive = no reads after selection
Please state the value as a number alone, without comment.

// solved cases for amyloid nucleation score follow
| Substance | Reported |
| --- | --- |
| NWNCICFLDPISRDTLYPQ | 8.49 |
| KHQSHFLVV | 0.872 |
| DSGCRTRVTLSRGFYRTFSS | 1.2 |
| FDIFVDLFFMGALSMRPAAQ | -0.241 |
| TTPIEAV | -0.178 |
| ITSNHSVWGIMLLKLVTGSI | 0.496 |
| GTVPNVRKYPCFLCSMRR | -1.28 |
| VLLVGDPDLPRKRRLRRIAE | 1.23 |

Field amyloid nucleation score (entry GGGEATLREFFKECGK ) reads -0.603

Field amyloid nucleation score (entry IWWFGSILFLRQSWYKIWSC ) reads -0.877

Field amyloid nucleation score (entry NIRKPNLNTMTDRLDWSVQS ) reads -0.102

Field amyloid nucleation score (entry IKEFRYMLKRYLLWFVDLLL ) reads 0.762

Field amyloid nucleation score (entry LSLKASDMRIGRYRSDKATF ) reads 1.18

Field amyloid nucleation score (entry SLIMIGIFFYFSLSKQPRSV ) reads 0.027

Field amyloid nucleation score (entry MLFPSVSKRLNVSALNCKNP ) reads -0.083

Field amyloid nucleation score (entry INFARPVTILTYATFSVFGN ) reads 4.9

Field amyloid nucleation score (entry CMSSAALSRLHM ) reads -0.605

Field amyloid nucleation score (entry IGGVFALHCRMNIAPGSHTL ) reads 2.38

Field amyloid nucleation score (entry KMRILWVV ) reads 0.945

Field amyloid nucleation score (entry ITLKCCMSTRNHMCHR ) reads 3.75

Field amyloid nucleation score (entry HVSAWWLTSNV ) reads -0.205

Field amyloid nucleation score (entry KNYDGCHMSYVGSRGWITSL ) reads 0.215

Field amyloid nucleation score (entry VGKELLLSLRYSNWVCLDWF ) reads -0.715
